# system: human plasma-derived FIXa (Haematologic Technologies Inc) (human, UniProt P00740 47-191; P00740 227-461)
# Sequence (P00740 47-191, chain 1 of 2): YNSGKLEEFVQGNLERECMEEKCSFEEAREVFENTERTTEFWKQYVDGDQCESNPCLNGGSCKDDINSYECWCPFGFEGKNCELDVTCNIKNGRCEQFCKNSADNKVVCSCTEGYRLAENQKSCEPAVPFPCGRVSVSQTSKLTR
# Sequence (P00740 227-461, chain 2 of 2): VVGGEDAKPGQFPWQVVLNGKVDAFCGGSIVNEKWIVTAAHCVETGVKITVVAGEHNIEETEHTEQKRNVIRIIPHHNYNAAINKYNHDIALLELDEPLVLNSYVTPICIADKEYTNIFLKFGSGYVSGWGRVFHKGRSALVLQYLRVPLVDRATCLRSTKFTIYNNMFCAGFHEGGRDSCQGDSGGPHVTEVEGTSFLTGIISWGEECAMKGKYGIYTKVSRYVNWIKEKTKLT
# assay-notes: cell-based or functional assay
Quick list: Stimulation index at 800 nM OA antibody per entry.
The figure you give is taken to be in fold; do not add the unit.

// below: answered binders
The recorded Stimulation index at 800 nM OA antibody for entry mAb5-0161 (monovalent one-armed version of mAb1-8785) (antibody, V domains shown) VH: EVQLVESGGGLVQPGRSLKLSCAASGFTFHDYAMHWVRQVPGKGLEWVSGISWRGDIIGYVDSVKGRFTISRDNKKNSLYLQLNSLRAEDTALYYCVKSYGSGSFYNAFDSWGQGTLVTVSS VL: DIQMTQSPSTLSASAGDRVTITCRASQSISSWLAWYQQKPGKAPKFLIYKASRLDRGVPSRFSGSGSGTEFSLTISSLQPDDFATYYCLEYSSYIRTFGQGTKVEIK equals 621

The recorded Stimulation index at 800 nM OA antibody for entry mAb4-9578 (monovalent one-armed version of mAb1-7977) (antibody, V domains shown) VH: EVQLVESGGGLVQPGRSLKLSCAASGFRFDDYAMHWVRQAPGKGLEWVSGISWRGAQIGYADSVKGRFTISRDNAKNSLYLQLNSLRAEDTALYYCAKSYGSGSFYNAFDSWGQGTLVTVSS VL: DIQMTQSPSTLSASVGDRVTITCRASQKISSWLAWYQQKPGKAPKFLIYKASRLDRGVPSRFSGSGSGTEFSLTISSLQPDDFATYYCLEYRSYIRTFGQGTKVEIK equals 850

Proceed to the following item.
The recorded Stimulation index at 800 nM OA antibody for entry mAb4-5347 (monovalent one-armed version of mAb1-6582) (antibody, V domains shown) VH: EVQLVQSGAEVKKPGESLRISCKGSGYSFRPYWIGWVRQMPGKGLEWMGMIDPSDSYTDYGPSFEGHVTISADKSISTAYLQWSSLKASDTAMYYCARVRIRAGAFDIWGQGTMVTVSS VL: DIVMTQSPLSLPVTPGEPASISCRSSQSLLHSTWYNYLNWYLQKPGQSPQLLIYLGKNRASGVPDRFSGSGSGTDFTLKISRVEAEDVGVYYCMQVLHIPYTFGQGTKLEIK equals 692

Cited source: patent US20250011468A1
